Target: NADPH oxidase 2 (Homo sapiens)
Test: NOX2-dependent H2O2 signal modulators, primary screen, NOX inhibitor project, cell-based, HEK293-NOX2, PMA-stimulated, Amplex Red fluorescence (AID 1159); note: test concentration not given here
Conditions: 45 min, higher = more signal, called active from +8 up or from −8 down
property-label: z-score
Note: the reply should be a number with no unit written.

Solved cases below.
C=CCN1C(=O)[C@]2(O[C@H](CCO)[C@@H]([Si](C)(C)c3ccc(OC)cc3)[C@@H]2C)c2cc(N3C(=O)c4ccccc4Oc4ccccc43)ccc21: 0.0876
C[C@H]1C2[C@H](Cc3ccccc3)NC(=O)[C@]23C(=O)N[C@@H](Cc2ccccc2)C(=O)N2CCC[C@H]2C(=O)NC/C=C/CC/C=C/C3[C@@H]2O[C@]12C (some centres undefined): 1.25
COCCOC(=O)N1C(=O)[C@@]2(c3cc(C#CCC(C(=O)OC)C(=O)OC)ccc31)[C@H](C(N)=O)[C@H]1C(=O)O[C@H](c3ccccc3)[C@H](c3ccccc3)N1[C@@H]2c1ccccc1OCCO: 1.02
COc1c(C)cc(-c2cc3c(c(CCc4ccccc4)n2)[Si](C(C)C)(C(C)C)O[C@H]3c2ccccc2)cc1C: 0.283
C=C(C(=O)CC[C@H](OC(=O)c1ccccc1-c1ccccc1C(=O)O)c1ccc(OCCO)cc1)C(C)C: 0.357

For the compound "COc1ccc([Si](C)(C)[C@H]2[C@H](CC(=O)N3CCC[C@H]3CO)O[C@@]3(C(=O)N(C)c4ccccc43)[C@@H]2C)cc1" , report z-score. 1.4

Give the measured z-score for "COc1cccc(C)c1NC(=O)O[C@H]1[C@H](OC(=O)Nc2ccccc2)[C@@H](OC(=O)Nc2ccccc2)[C@@H](OC)O[C@@H]1CO" -7.01

Tell us which z-score value is on record for CC1CC/C=C\[C@H]2OC34C=CCN(C(C)C)C(=O)[C@H]3N(C(C)CO)C(=O)[C@@H]4C2C(=O)O1 (some centres undefined) 0.273

Please indicate z-score recorded for C=C(C)C1CN([C@H](CO)c2ccccc2)C(=O)/C1=C\c1ccccc1 (some centres undefined) -0.00303

---

Target: Pro-neuregulin-1, membrane-bound isoform (Homo sapiens) (UniProt Q02297)
Sequence (Q02297 whole entry, looked up, canonical isoform): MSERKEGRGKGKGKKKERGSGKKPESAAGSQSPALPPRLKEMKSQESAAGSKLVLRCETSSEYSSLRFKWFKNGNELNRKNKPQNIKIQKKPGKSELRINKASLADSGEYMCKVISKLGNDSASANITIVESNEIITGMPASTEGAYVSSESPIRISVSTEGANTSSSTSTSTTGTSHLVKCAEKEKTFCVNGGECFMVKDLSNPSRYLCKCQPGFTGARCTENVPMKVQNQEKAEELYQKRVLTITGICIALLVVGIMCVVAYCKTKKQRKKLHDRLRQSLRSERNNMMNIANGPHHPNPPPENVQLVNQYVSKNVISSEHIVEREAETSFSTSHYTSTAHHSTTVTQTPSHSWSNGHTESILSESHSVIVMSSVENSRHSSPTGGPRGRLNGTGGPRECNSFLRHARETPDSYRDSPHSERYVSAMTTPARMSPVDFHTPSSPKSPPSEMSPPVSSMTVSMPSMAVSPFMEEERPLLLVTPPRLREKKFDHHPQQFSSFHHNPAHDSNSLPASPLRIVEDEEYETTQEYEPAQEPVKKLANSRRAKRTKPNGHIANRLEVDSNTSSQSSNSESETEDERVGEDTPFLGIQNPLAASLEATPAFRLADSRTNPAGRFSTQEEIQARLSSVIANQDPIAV
Test: NRG1 binders on small-molecule microarrays, primary screen, psychiatric disease protein project, biochemical, small-molecule microarray, fluorescence 635/667 (AID 1075);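 note: score combines 667 nm spot fluorescence with signal to noise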
Details: NRG1 binding, 635 nm fluorescence, higher = more signal
property-label: composite z-score
Output: the number by itself.

Worked cases, composite z-score given:
C=C(C(=O)CC[C@@H](OC(=O)c1ccccc1-c1ccccc1C(=O)O)c1ccc(CO)o1)C(C)C: 0.115
CCOC(=O)C[C@H]1[C@H](OC(=O)c2cc3ccccc3oc2=O)[C@@H](NC(=O)Cc2ccc(OC)cc2)c2cc(OCCCO)ccc2N1C(=O)Cc1ccc(OC)cc1: 0.185
COC(=O)[C@H]1N=C(c2ccc(OCCCO)cc2)O[C@H]1c1ccccc1N=[N+]=[N-]: 0.544
COC(=O)C(CC#Cc1ccc2c(c1)[C@]1(C(=O)N2)[C@H](C(=O)N2CCN(c3ncccn3)CC2)[C@H]2C(=O)O[C@H](c3ccccc3)[C@H](c3ccccc3)N2[C@@H]1c1ccc(O)cc1)C(=O)OC: 1.44
COC(=O)[C@@]1(Cc2ccc(F)cc2)[C@H]2c3cc(C(=O)N(C)C)n(Cc4cccc5ccccc45)c3C[C@H]2CN1C(=O)c1ccccc1: 1.13

Turning now to a further molecule:
Please report composite z-score for the following molecule: "C=C(COC)C(=O)CC[C@H](OC(C)=O)c1ccccc1OCCO" -0.493
